// data source = PubChem BioAssay (NCI)

Test system: A498 renal
Test: NCI-60 one-dose screen, 48 h (100 = growth as untreated, 0 = no growth, -100 = all killed)
Details: 10 µM unless noted
This is part of a sample that, as a whole, favours compounds with a hit. Of some 83,000 tested, about 20% had one in any assay. Active and inactive are the calls of the source. Rule for the calls: active = growth percent below 10; inactive = the rest.
// values below are reported growth

Endpoint output: growth of COc1ccc2c(c1)C(C)Cc1c(ncnc1-n1cnc3ccccc31)N2C (centres undefined) . Value?
-0.234% (active)

Endpoint output: growth of Cc1cccc(/C=C2\N=C(c3ccccc3)N(c3ccc(S(N)(=O)=O)cc3)C2=O)c1 . Value?
101% (inactive)

Endpoint output: growth of COc1ncc(-c2ccc3nccc(C#CCCCCC(=O)O)c3c2)cc1NS(=O)(=O)c1ccc(F)cc1F . Value?
-34.5% (active)

Endpoint output: growth of COc1ccccc1S(=O)Nc1ccccc1 (centres undefined) . Value?
82.9% (inactive)

Endpoint output: growth of Cc1ccc(-c2cc(O)c(-c3ccc(C)cc3C)cc2O)c(C)c1 . Value?
94.3% (inactive)

Endpoint output: growth of C#CCNC(=O)CC[C@]1(C)[C@H]2CC[C@@H]3[C@@H]([C@@](C)(O)CCC=C(C)C)CC[C@@]3(C)[C@]2(C)CC[C@H]1C(=C)C . Value?
67.1% [100 µM] (inactive)

Endpoint output: growth of C=C(C)[C@@H]1CC[C@]2(C(=O)NCCNCCNCCN)CC[C@]3(C)[C@H](CC[C@@H]4[C@@]5(C)CCC(=O)C(C)(C)[C@@H]5CC[C@]43C)[C@@H]12 . Value?
80.8% [100 µM] (inactive)

Endpoint output: growth of N#C/C(C(=O)c1ccccc1)=C1/C(=O)Nc2ccc(F)cc21 . Value?
81.1% (inactive)

Endpoint output: growth of c1nc(N2CCOCC2)c2[nH]ccc2n1 . Value?
96.3% (inactive)

Endpoint output: growth of C[C@]12CCc3c(ccc4cc(O)ccc34)[C@@H]1CC[C@H]2O . Value?
85% (inactive)

Endpoint output: growth of c1coc2occoc=2o1 . Value?
107% (inactive)

Endpoint output: growth of CCN=C1C=CC(=C(c2ccc(N(CC)CC)cc2)c2ccc(N(CC)CC)cc2)c2ccccc21 . Value?
-89.3% (active)

Endpoint output: growth of CCn1cc(-c2[nH]c(=S)ncc2-c2ccc(Cl)cc2)c(-c2ccc(Br)cc2)n1 . Value?
106% (inactive)

Endpoint output: growth of C[C@H]1[C@H](C)CC[C@]2(COC(=O)CCC(=O)O)CC[C@]3(C)C(=CC[C@@H]4[C@@]5(C)CCCNC(C)(C)[C@@H]5CC[C@]43C)[C@H]12 . Value?
70.3% [100 µM] (inactive)
